# measurement-target: D(2) dopamine receptor (Homo sapiens, UniProt P14416)
# Sequence (P14416 whole entry): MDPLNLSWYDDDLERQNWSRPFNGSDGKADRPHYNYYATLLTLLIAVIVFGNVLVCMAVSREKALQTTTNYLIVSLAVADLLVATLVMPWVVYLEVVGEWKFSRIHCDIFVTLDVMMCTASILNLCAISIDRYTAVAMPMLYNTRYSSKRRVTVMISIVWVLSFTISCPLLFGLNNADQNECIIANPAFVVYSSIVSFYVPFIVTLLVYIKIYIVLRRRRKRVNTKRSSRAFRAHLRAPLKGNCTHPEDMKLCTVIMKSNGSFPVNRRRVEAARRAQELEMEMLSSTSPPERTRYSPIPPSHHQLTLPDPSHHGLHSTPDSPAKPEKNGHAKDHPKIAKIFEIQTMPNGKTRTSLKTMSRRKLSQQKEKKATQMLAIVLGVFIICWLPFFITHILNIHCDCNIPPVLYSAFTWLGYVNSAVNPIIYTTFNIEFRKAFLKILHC
# experiment: Binding affinity to dopamine D2 receptor (unknown origin)
recorded-metric: Ki
The number alone won't do; follow it with the unit.

For the compound N#Cc1ccc(CNC(=O)CCCCCN2CCN(c3ccccc3-c3ccccc3)CC2)cc1 , give its measured Ki value.
242 nM

---

# measurement-target: 5-hydroxytryptamine receptor 6 (Homo sapiens, UniProt P50406)
# Sequence (P50406 whole entry): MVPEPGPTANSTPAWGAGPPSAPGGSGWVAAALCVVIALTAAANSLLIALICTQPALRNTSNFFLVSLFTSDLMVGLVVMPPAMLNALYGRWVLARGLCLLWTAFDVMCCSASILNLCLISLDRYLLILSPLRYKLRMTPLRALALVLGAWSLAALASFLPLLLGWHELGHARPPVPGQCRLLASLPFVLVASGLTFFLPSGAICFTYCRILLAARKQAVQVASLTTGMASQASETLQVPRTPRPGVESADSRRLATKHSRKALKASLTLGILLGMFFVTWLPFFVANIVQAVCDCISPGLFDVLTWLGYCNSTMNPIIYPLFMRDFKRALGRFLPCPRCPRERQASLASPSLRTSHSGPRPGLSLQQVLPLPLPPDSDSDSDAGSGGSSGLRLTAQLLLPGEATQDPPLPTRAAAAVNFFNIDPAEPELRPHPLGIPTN
# experiment: Displacement of [3H]-LSD from human 5-HT6 receptor expressed in HEK293 cell membranes after 1 hr by microbeta counting analysis
I'd appreciate it if you could label each record using Ki and these ranges: low-valued = under 700 nM, mid-valued = from 700 nM up to 2000 nM, high-valued = 2000 nM and over

Example cases with answers are listed next.
[[record]]
smi = "COCOc1ccc(CNC(=O)CCCCCN2CCN(c3ccccc3-c3ccccc3)CC2)cc1"
class = "low-valued"

[[record]]
smi = "C[C@H]1CN(c2ccccc2-c2ccccc2)CCN1CCCCCC(=O)NCc1ccccc1"
class = "low-valued"

[[record]]
smi = "N#Cc1ccc(CNC(=O)CCCCCN2CCN(c3ccc(F)cc3-c3ccc(C#N)cc3)CC2)cc1"
class = "mid-valued"


Which class is correct for the following compound? C[C@@H](NC(=O)CCCCCN1CCN(c2ccccc2-c2ccccc2)CC1)c1ccccc1
low-valued

Which class is correct for the following compound? N#Cc1ccc(CNC(=O)CCOCCN2CCN(c3ncccc3-c3ccccc3)CC2)cc1
mid-valued

Which class is correct for the following compound? O=C(CCOCCN1CCN(c2ccccc2-c2ccccc2)CC1)NCc1ccc(C(F)(F)F)cc1
mid-valued

Which class is correct for the following compound? COc1ccc(-c2ccccc2N2CCN(CCCCCC(=O)N[C@@H](C)c3ccccc3)CC2)cc1
low-valued

Which class is correct for the following compound? N#Cc1ccc(CNC(=O)CCOCCN2CCN(c3ncccc3-c3ccc(F)cc3)CC2)cc1
mid-valued

Which class is correct for the following compound? COc1ccc(-c2ccccc2N2CCN(CCCCCC(=O)NCc3ccc(OCCN4CCOCC4)cc3)CC2)cc1
mid-valued

Which class is correct for the following compound? C[C@H](NC(=O)CCCCCN1CCN(c2ccccc2-c2ccccc2)CC1)c1ccccc1
low-valued

Which class is correct for the following compound? O=C(CCOCCN1CCN(c2ncccc2-c2ccc(F)cc2)CC1)NCc1ccc(C(F)(F)F)cc1
mid-valued

Which class is correct for the following compound? COc1ccc(-c2ccccc2N2CCN(CCCCCC(=O)NCc3ccc(OCCO)cc3)CC2)cc1
mid-valued

Which class is correct for the following compound? N#Cc1ccc(CNC(=O)CCOCCN2CCN(c3cccnc3-c3ccc(F)cc3)CC2)cc1
high-valued

Which class is correct for the following compound? COCOc1ccc(CNC(=O)CCCCCN2CCN(c3ccccc3-c3ccc(OC)cc3)CC2)cc1
low-valued

Which class is correct for the following compound? COc1ccc(-c2ccccc2N2CCN(CCCCCC(=O)NCc3ccc(OCCCN4CCOCC4)cc3)CC2)cc1
mid-valued
